The origin of these recorded values is the supplement of paper PMC5940239.

# Test system: Madurella mycetomatis MM55
# measurementContext: 7 days
pIC50: −log10 of the molar value.

molecule: COc1ccc(OC(C)C(=O)Nc2ccc(Cl)cc2C)cc1 (stereo unspecified)
pIC50: 4.57
//
molecule: Cc1cc(OCC(=O)NCc2ccccc2)c2cc(Br)ccc2n1
pIC50: 4.17
//
molecule: c1coc(CNc2nc(N3CCCCC3)nc3ccccc23)c1
pIC50: 4.99
//
molecule: c1csc(-c2cnc3sc(NCC4CCOCC4)nn23)c1
pIC50: 4.20
//
molecule: COc1ccc(CCN2CCC(NCc3cccc(N(C)C)c3)CC2)cc1
pIC50: 4.61
//
molecule: Cc1cnc(N2CCN[C@@H](Cc3ccccc3)C2)nc1Oc1ccc(-n2ccnc2)cc1
pIC50: 4.97
//
molecule: CN1CCCN(C(c2ccccc2)c2ccc(Cl)cc2)CC1 (stereo unspecified)
pIC50: 4.99
//
molecule: COc1cc(C2=NCCN2)cc2cc(-c3ccc(C4=NCCN4)cc3)oc12
pIC50: 4.32
//
molecule: Cn1c(=O)c2c(S(C)(=O)=O)snc2n(C)c1=O
pIC50: 4.22
//
molecule: CC(C)n1nc(-c2cc3c(Cl)cccc3[nH]2)c2c(N)ncnc21
pIC50: 4.28
//
molecule: Nc1nc2ccc(-c3cncc(Oc4ccc(F)cc4)c3)cc2[nH]1
pIC50: 4.39

----------
# Tested on: Madurella mycetomatis MM55
# measurementContext: 7 days
measureName: IC50 (µM)

molecule: CCC(Sc1nc2ccccc2o1)C(=O)Nc1nccs1 (centres undefined)
unitDescriptor: µM
obsValue: 37.1
--
molecule: N#CCN(CCCCN1CCN(c2ccc(F)cc2)CC1)C(=O)OCc1ccccc1
unitDescriptor: µM
obsValue: 64.3
--
molecule: C[C@@H]1[C@H](O)[C@@H](C)/C=C/C=C/C=C/C=C/C=C/C=C/C=C/[C@H](O[C@@H]2O[C@H](C)[C@@H](O)[C@H](N)[C@@H]2O)C[C@@H]2O[C@](O)(C[C@@H](O)C[C@@H](O)[C@H](O)CC[C@@H](O)C[C@@H](O)CC(=O)O[C@H]1C)C[C@H](O)[C@H]2C(=O)O
unitDescriptor: µM
obsValue: 9.7
--
molecule: FC(F)(F)c1cc(NCCc2ccccc2)nc(-c2ccccn2)n1
unitDescriptor: µM
obsValue: 55.5
--
molecule: Cc1cc(NCCc2ccccc2)nc(NC(=N)Nc2ccc(Cl)cc2)n1
unitDescriptor: µM
obsValue: 10.4
--
molecule: NCCN(C(=O)c1ccc(Cl)cc1Cl)c1ccc(OCc2ccc(Cl)cc2)cc1
unitDescriptor: µM
obsValue: 10.5
--
molecule: Brc1cncc(-c2cc(NCCCn3ccnc3)nc(-c3ccccc3)n2)c1
unitDescriptor: µM
obsValue: 55
--
molecule: CC(C)(C)c1ccc(N[C@@H]2CCCC[C@H]2NC(=O)c2ccco2)cc1
unitDescriptor: µM
obsValue: 53
--
molecule: O=C(c1ccco1)N(CCCn1ccnc1)c1nc2c(Cl)cccc2s1
unitDescriptor: µM
obsValue: 59.1

----------
# Test system: Madurella mycetomatis MM55
# assayProcedure: percent growth relative to solvent control; higher = less inhibition, active = 20 or less
# measurementContext: 100 µM; 7 days
Measured percent growth, listed per entry for reference.

compound: COC(=O)C1=C(C)NC(C)=C(C(=O)OC(C)C)C1c1cccc2nonc12 (stereo unspecified)
unitDescriptor: %
percent growth: -1.92

compound: CN1CCN(c2nccc3nc(-c4ccc(F)c(F)c4)[nH]c23)CC1
unitDescriptor: %
percent growth: 52.1

compound: CC(C)(C)n1nc(Cc2cccc3ccccc23)c2c(N)ncnc21
unitDescriptor: %
percent growth: 69.6

compound: COc1ccccc1C(C)NCC(=O)Nc1cc(C(F)(F)F)ccc1Cl (stereo unspecified)
unitDescriptor: %
percent growth: 28.7

compound: O=C(c1ccco1)N(CCCn1ccnc1)c1nc2c(Cl)cccc2s1
unitDescriptor: %
percent growth: 3.24

compound: Cc1cccnc1NC(=O)c1cccc(OCc2c(C)noc2C)c1
unitDescriptor: %
percent growth: 85.1

----------
# Test system: Madurella mycetomatis MM55
# assayProcedure: percent growth relative to solvent control; higher = less inhibition, active = 20 or less
# measurementContext: 100 µM; 7 days
Outcome codes: active, inactive

compound: O=C(NCc1nnc2n1CCCCC2)c1ccc(-c2ccc(F)cc2)o1
assignedLabel: inactive
--
compound: CCc1ccc([C@@H]2C[C@H](C(F)(F)F)n3ncc(C(=O)NCc4ccc(OC)cc4)c3N2)cc1
assignedLabel: inactive
--
compound: Cc1nc(-c2cccc(NCc3ccccc3)c2)[nH]c1C
assignedLabel: active
--
compound: c1cncc(NCc2ccc(-c3cc4ccncc4cc3OC3CCNCC3)s2)c1
assignedLabel: active
--
compound: N=C(N)Nc1ccc(-c2ccc(-c3ccc(N=C(N)N)c(Cl)c3)o2)cc1Cl
assignedLabel: active
--
compound: COCC(C)NC(=O)CSc1ncnc2sc(-c3ccccc3)cc12 (stereo unspecified)
assignedLabel: inactive
--
compound: NC(=O)c1cc(-c2ccsc2)ccc1OCCOc1ccccc1
assignedLabel: inactive
--
compound: COc1ccc(-c2nn(C(C)C)c3ncnc(N)c23)cc1OC
assignedLabel: inactive
--
compound: O=C(NCc1cc(Cl)cc(Cl)c1)c1c(C(F)(F)F)nc2ccccn12
assignedLabel: inactive
--
compound: O=C(Nc1cccnc1)c1c(O)c2cccc3c2n(c1=O)CC3
assignedLabel: inactive
--
compound: O=C(c1[nH]nc2c1CCCC2)N1CCN(Cc2ccc3c(c2)OCO3)CC1
assignedLabel: inactive

----------
As shown below, each of these molecules has a reported pIC50 value.
# System: Madurella mycetomatis MM55
# measurementContext: 7 days
pIC50: −log10 of the molar value.
measureName: pIC50

molecule: COc1ccc(-c2onc(C(F)(F)F)c2-c2ccc(Cl)cc2)c(O)c1
obsValue: 5.06
--
molecule: CN1CCN(c2nccc3[nH]c(-c4cccc(F)c4)cc23)CC1
obsValue: 4.30
--
molecule: O=C(Nc1cccc(-c2ccc(NCCCN3CCCC3)nc2)c1)c1ccccc1
obsValue: 4.28
--
molecule: COc1ccc(-c2cnc3cnc(-c4cccc(OC(C)C)c4)cn23)cc1
obsValue: 4.36
--
molecule: CC(C)=CCC/C(C)=C\CNCCNC1C2CC3CC(C2)CC1C3 (stereo not given)
obsValue: 4.99
--
molecule: Cc1ccc2nc(Cl)c(CNCc3cccs3)cc2c1
obsValue: 4.43
--
molecule: Cc1ncc(-c2ccnc(Nc3ccc(S(C)(=O)=O)cc3)n2)n1C(C)C
obsValue: 4.18
--
molecule: CN1CCN(CCCOc2ncc(Nc3ncc(-c4ccc(C(F)(F)F)c(F)c4)nc3C(N)=O)cn2)CC1
obsValue: 4.59
--
molecule: O=C(Nc1ccc(N2CCNCC2)nc1)c1oc(-c2ccccc2)nc1C(F)(F)F
obsValue: 4.42
--
molecule: O[C@@H](c1cc(C(F)(F)F)nc2c(C(F)(F)F)cccc12)[C@H]1CCCCN1
obsValue: 4.41

----------
# System: Madurella mycetomatis MM55
# measurementContext: 7 days
measureName: log10 of IC50 (log10 of the value in µM)

compound: CCc1ccc(S(=O)(=O)Nc2cc(CN3CCN(CCC(C)C)CC3)ccc2C)cc1
log10 of IC50: 1.78
--
compound: COC(=O)C1=C(C)NC(C)=C(C(=O)OC(C)C)C1c1cccc2nonc12 (stereo not drawn)
log10 of IC50: 1.65
--
compound: CC(C)(C)C1CCC(CC2=C(O)C(=O)c3ccccc3C2=O)CC1 (stereo not drawn)
log10 of IC50: 1.82
--
compound: O=C(NC1CC1)c1ccc(N2CCOc3ccc(Cl)cc32)s1
log10 of IC50: 1.54
--
compound: CCOC(=O)c1c(NC(=O)c2c(F)c(F)c(F)c(F)c2F)sc(C(N)=O)c1C
log10 of IC50: 1.78
--
compound: O=C(Nc1nnc(-c2ccc(Cl)cc2)o1)c1cccc(C(F)(F)F)c1
log10 of IC50: 1.03
--
compound: O=C(c1cc2ccccc2o1)N1CCN(Cc2ccc3c(c2)OCO3)CC1
log10 of IC50: 1.65
--
compound: CC(Oc1ccccc1)C(=O)Nc1nc(-c2ccccn2)cs1 (stereo not drawn)
log10 of IC50: 1.00
--
compound: CCOc1ccc2cc(-c3nn(CC4CCN(C)CC4)c4ncnc(N)c34)ccc2c1
log10 of IC50: 1.71
--
compound: Cc1nn(C(=O)Nc2cccc(C(F)(F)F)c2)c(C)c1Sc1ncccn1
log10 of IC50: 1.84
--
compound: c1ccc(Oc2ccc(-c3cc(C4CCOCC4)[nH]n3)cc2)cc1
log10 of IC50: 1.55
--
compound: COc1cc2ncnc(NC3CCN(Cc4ccccc4)CC3)c2cc1OC
log10 of IC50: 1.82
--
compound: Cc1cccc(Cn2ccc(NC(=O)c3ccc4c(c3)OCO4)n2)c1
log10 of IC50: 1.78
--
compound: Cc1cc(C)n(-c2ccc(NC(=O)C3CCN(Cc4cnc(C)s4)CC3)cc2)n1
log10 of IC50: 1.69
--
compound: O=C([C@@H](c1ccc(Cl)cc1)c1cccnc1)N1CCN(c2ccc(C(F)(F)F)cc2)CC1
log10 of IC50: 0.13
--
compound: Oc1c(I)cc(I)c2cccnc12
log10 of IC50: 0.41
--
compound: CCN(CC)CCCCCCNc1cc(OC)cc2c(C)ccnc12
log10 of IC50: 0.99
--
compound: Cc1nnc(NCc2cccc(Cl)c2)c2ccccc12
log10 of IC50: 1.46
--
compound: Cc1[nH]c2ccccc2c1C(c1cccs1)N1CCN(C)CC1 (stereo not drawn)
log10 of IC50: 1.10
--
compound: O=C(c1ccc(NCCO)cc1)C1C[C@H]1c1ccc(Cl)cc1 (stereo partly drawn)
log10 of IC50: 1.09
--
compound: CN1CCC(NCc2cccc(-c3ccc(S(=O)(=O)NCc4ccccc4)cc3)c2)CC1
log10 of IC50: 1.61
--
compound: Cc1ccc(-c2nc(CN(Cc3ccccn3)C(C)C)cs2)o1
log10 of IC50: 1.73
--
compound: c1ccc(Oc2ccc(-c3cc(N4CCNCC4)[nH]n3)cc2)cc1
log10 of IC50: 1.55
